- PROTOCOL SUMMARY: Water solubility
- Format: physicochemical
- CONDITION CONTEXT: water, bei 25 °C; read-out: Wasserlöslichkeit
What solubility was measured for each of the following?

Ask: Please give the measured solubility for this compound: C[C@@H](Oc1c(I)c(C(=O)NC(CO)CO)c(I)c(C(=O)NC(CO)CO)c1I)C(=O)NC(CO)(CO)CO
Result: 25 mg/mL

Ask: Please give the measured solubility for this compound: CC(CO)(CO)NC(=O)COc1c(I)c(C(=O)NCC(O)CO)c(I)c(C(=O)NCC(O)CO)c1I (stereo not shown)
Result: > 1000 mg/mL

Ask: Please give the measured solubility for this compound: CN(C[C@H](O)[C@H](O)CO)C(=O)COc1c(I)c(C(=O)NCC(O)CO)c(I)c(C(=O)NCC(O)CO)c1I (stereo partly shown)
Result: > 1000 mg/mL

Ask: Please give the measured solubility for this compound: CN(CC(O)CO)C(=O)COc1c(I)c(C(=O)NCC(O)CO)c(I)c(C(=O)NCC(O)CO)c1I (stereo not shown)
Result: > 1000 mg/mL

Ask: Please give the measured solubility for this compound: CC(Oc1c(I)c(C(=O)NC(CO)CO)c(I)c(C(=O)NC(CO)CO)c1I)C(=O)N(CCO)CCO (racemic)
Result: > 1000 mg/mL

Ask: Please give the measured solubility for this compound: CCOCCOCCOc1c(I)c(C(=O)N(C)CC(O)CO)c(I)c(C(=O)N(C)CC(O)CO)c1I (stereo not shown)
Result: > 600 mg/mL

Ask: Please give the measured solubility for this compound: CN(C[C@H](O)[C@@H](O)[C@@H](O)CO)C(=O)COc1c(I)c(C(=O)NCC(O)CO)c(I)c(C(=O)NCC(O)CO)c1I (stereo partly shown)
Result: > 1000 mg/mL

Ask: Please give the measured solubility for this compound: CC(Oc1c(I)c(C(=O)NC(CO)CO)c(I)c(C(=O)NC(CO)CO)c1I)C(=O)N(C)C[C@H](O)[C@@H](O)[C@H](O)[C@H](O)CO (stereo partly shown)
Result: > 1000 mg/mL

Ask: Please give the measured solubility for this compound: COC(=O)[C@@H](C)Oc1c(I)c(C(=O)NC(CO)CO)c(I)c(C(=O)NC(CO)CO)c1I [R(+)-5(1(Methoxycarbonyl)ethoxy-IPSA]
Result: ~800 mg/mL

Ask: Please give the measured solubility for this compound: C[C@@H](Oc1c(I)c(C(=O)NC(CO)CO)c(I)c(C(=O)NC(CO)CO)c1I)C(=O)N(C)C[C@H](O)[C@@H](O)[C@H](O)[C@H](O)CO
Result: > 1000 mg/mL

Ask: Please give the measured solubility for this compound: O=C(COc1c(I)c(C(=O)NCC(O)CO)c(I)c(C(=O)NCC(O)CO)c1I)NCCO (stereo not shown)
Result: 12 mg/mL

Ask: Please give the measured solubility for this compound: C[C@@H](Oc1c(I)c(C(=O)NC(CO)CO)c(I)c(C(=O)NC(CO)CO)c1I)C(=O)N(C)C[C@H](O)[C@@H](O)[C@@H](O)CO
Result: > 1000 mg/mL

Ask: Please give the measured solubility for this compound: O=C(NC(CO)CO)c1c(I)c(OCC(=O)N(CCO)CCO)c(I)c(C(=O)NC(CO)CO)c1I
Result: > 1000 mg/mL
